The origin of these recorded values is patent US20210395718A1.

System: ketose 3-epimerase (present enzyme, purified enzyme of wild strain)
protocolDetails: Substrate specificity of ketose 3-epimerase using 8 kinds of ketohexoses
Assay type: biochemical, Arthrobacter histidinolovorans Y586-1 strain
cond: each substrate 0.1 M, phosphate buffer pH 8.0, 70° C., 10 min; epimerization activity for D-allulose = 100
measuredQuantity: Relative activity (%)

{"columns": ["molecule", "studySystem", "val"],
 "data": [
  ["O=C(CO)[C@@H](O)[C@H](O)[C@@H](O)CO [L-sorbose]", "ketose 3-epimerase (present enzyme, purified enzyme of wild strain)", "trace"],
  ["O=C(CO)[C@@H](O)[C@@H](O)[C@@H](O)CO [L-allulose]", "ketose 3-epimerase (present enzyme, purified enzyme of wild strain)", "27.1%"],
  ["O=C(CO)[C@H](O)[C@@H](O)[C@@H](O)CO [L-fructose]", "ketose 3-epimerase (present enzyme, purified enzyme of wild strain)", "trace"]
]}
